Target: Menin-MLL (Homo sapiens, UniProt O00255)
Construct: His-Menin (M1-L615 end); purchased BIORTUS BP9210
Sequence (O00255 1-615 isoform O00255-1): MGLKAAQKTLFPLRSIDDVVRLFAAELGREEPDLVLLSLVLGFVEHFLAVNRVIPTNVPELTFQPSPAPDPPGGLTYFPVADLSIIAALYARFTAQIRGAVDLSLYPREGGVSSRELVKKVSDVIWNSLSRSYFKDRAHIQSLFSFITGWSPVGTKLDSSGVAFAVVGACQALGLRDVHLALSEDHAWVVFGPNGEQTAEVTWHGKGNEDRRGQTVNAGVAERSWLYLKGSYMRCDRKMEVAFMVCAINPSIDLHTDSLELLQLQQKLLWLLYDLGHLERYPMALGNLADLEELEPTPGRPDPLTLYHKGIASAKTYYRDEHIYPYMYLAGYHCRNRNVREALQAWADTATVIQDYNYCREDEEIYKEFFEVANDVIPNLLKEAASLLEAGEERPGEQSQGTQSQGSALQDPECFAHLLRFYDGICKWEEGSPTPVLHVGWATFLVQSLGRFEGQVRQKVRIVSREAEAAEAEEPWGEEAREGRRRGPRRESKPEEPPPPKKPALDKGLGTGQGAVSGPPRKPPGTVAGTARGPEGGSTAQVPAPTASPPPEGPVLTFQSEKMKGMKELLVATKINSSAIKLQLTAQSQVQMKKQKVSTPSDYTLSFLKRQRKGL
Assay: Inhibitory activity against Menin-MLL binding (fluorescence polarization)
Settings: fluorescence polarization; 150 nM His-Menin, 15 nM FITC-MLL; 25°C for 60 min; read-out: Menin-MLL IC50
pIC50: −log10 of the molar value.
quantityName: pIC50

I = C=C1C[C@@H]2CC[C@H]1[C@@H](C(=O)N1CCC(c3cc(-c4ccc(F)cc4C(=O)N(CC)C(C)C)c4cncn4c3)C1)N2 (stereo partly drawn) [Example 23]
II = CCN(C(=O)c1cc(F)ccc1-c1cc(N2CCN(C(=O)[C@@H]3CCCN3)CC2)cn2c(C)nc(Cl)c12)C(C)C [Example 114]
III = CCS(=O)(=O)N[C@H]1CC[C@H](CN2CC(c3cc(-c4ccc(F)cc4C(=O)N4CCC[C@H]4C)c4cnn(C)c4c3)C2)CC1 [Example 167]
// ranking: key=pIC50, reverse=True Sort and list the labels as requested.
II, III, I
(II: 7.72, III: 7.24, I: 6.99)

---

Test system: MV-4-11 (carrying MLL-AF4)
Assay: Inhibition of proliferation of human tumor cells (Alamar Blue, 7 days), MV-4-11
Format: cell-based
Details: Homo sapiens, MV4-11, 168 h, MV-4-11 cells (carrying MLL-AF4), method calls the value GI50
quantityName: IC50 (nM)

smilesInput	IC50, nM
Cc1nc(F)c2c(-c3ccc(F)cc3C(=O)N3CCOC[C@H]3C)cc(C3CN([C@H](CCCN4CCC[C@H](O)C4)C(C)C)C3)cn12	2

I = COC1CCN(CCC[C@H](C(C)C)N2CC(c3cc(-c4ccc(F)cc4C(=O)N4CCOC[C@H]4C)c4cnn(C)c4c3)C2)CC1
II = C=C1C[C@@H]2CC[C@H]1[C@@H](C(=O)N1CC(c3cc(-c4ccc(F)cc4C(=O)N(CC(F)F)C(C)C)c4cnc(C)n4c3)C1)N2
Compare the recorded IC50 of I and II ; state which is larger. Indicate your choice by writing its label.
II
(II: 42 nM, I: 7.9 nM)

---

System: MV-4-11 (carrying MLL-AF4)
Experiment: Inhibition of proliferation of human tumor cells (Alamar Blue, 7 days), MV-4-11
Assay type: cell-based
Details: Homo sapiens, MV4-11, 168 h, MV-4-11 cells (carrying MLL-AF4), method calls the value GI50
quantityName: IC50 (nM)

compound	resultValue
CO[C@H]1CCCN(CCC[C@H](C(C)C)N2CC(c3cc(-c4ccc(F)cc4C(=O)N4CCOC[C@H]4C)c4c(F)nc(C)n4c3)C2)C1 [Example 306]	2.8
CCN1CCN(CCC[C@H](C(C)C)N2CC(c3cc(-c4ccc(F)cc4C(=O)N4CCOC[C@H]4C)c4c(F)nc(C)n4c3)C2)CC1 [Example 277]	1.6
Cc1nc(F)c2c(-c3ccc(F)cc3C(=O)N3[C@H](C)COC[C@H]3C)cc(C3CN(CC4CCN(C(=O)c5cncnc5)CC4)C3)cn12 [Example 234]	5.8
CCC(=O)N1CCC(CN2CC(c3cc(-c4ccc(F)cc4C(=O)N4[C@H](C)COC[C@H]4C)c4c(F)nc(C)n4c3)C2)CC1 [Example 231]	6.1
Cc1ncc2c(-c3ccc(F)cc3C(=O)N3[C@H](C)COC[C@H]3C)cc(C3CN(CC4CCOCC4)C3)cn12 [Example 212]	16
CO[C@H]1CCN(CCC[C@H](C(C)C)N2CC(c3cc(-c4ccc(F)cc4C(=O)N4CCOC[C@H]4C)c4cnn(C)c4c3)C2)C1 [Example 184-2]	6.3

I = CCN(C(=O)c1cc(F)ccc1-c1cc(C2CCN(CCc3ccc(-c4cc(OC)c(OC)nn4)cc3)CC2)cn2cncc12)C(C)C [Compound 42]
II = Cc1nc(F)c2c(-c3ccc(F)cc3C(=O)N3[C@H](C)COC[C@H]3C)cc(C3CN(CC4CCN(C(=O)C(F)F)CC4)C3)cn12 [Example 219]
III = CCN(C(=O)c1cc(F)ccc1-c1cc(C2CN([C@H](CCCN3CCN(CCO)CC3)C(C)C)C2)cn2c(C)ncc12)C(C)C [Example 398]
IV = CC(=O)N1CCC(CN2CC(c3cc(-c4ccc(F)cc4C(=O)N4[C@H](C)COC[C@H]4C)c4c(F)nc(C)n4c3)C2)CC1 [Example 205]
Rank items: key IC50, increasing. Sort and list the labels as requested.
III, I, IV, II

I = COCCN(C)CCCC(C(C)C)N1CC(c2cc(-c3ccc(F)cc3C(=O)N(CC(F)F)C(C)C)c3c(F)nc(C)n3c2)C1 (stereo not shown) [Example 142]
II = Cc1nc(F)c2c(-c3ccc(F)cc3C(=O)N3[C@H](C)COC[C@H]3C)cc(C3CN(CC4CCN(C(=O)CC(C)C)CC4)C3)cn12 [Example 218]
Compare the recorded IC50 of I and II ; state which is larger. Indicate your choice by writing its label.
II
(II: 6 nM, I: 2.2 nM)
